- target_system: HLA-A*03:01 class I complex (biotinylated heavy chain with beta2-microglobulin) (human)
- assay_comment: UV peptide exchange + HLA class I ELISA; % of Pos control peptide
- measurement_conditions: remark: other sources report otherwise
measured_property: exchange rate with Pos peptide
Numeric answer plus unit only.

{"binder": "LLERNSFEV (here or on the partner: biotinylated heavy chain) [P73 9-mer neoantigen peptide … (TP53 (G266E) missense)]", "measured_property": "exchange rate with Pos peptide", "test_value": "3.5%"}
{"binder": "YQFTFDLLI (here or on the partner: biotinylated heavy chain) [P48 9-mer neoantigen peptide … (AR.p.H875Y missense)]", "measured_property": "exchange rate with Pos peptide", "test_value": "4.4%"}
{"binder": "RAKCKFSIL (here or on the partner: biotinylated heavy chain) [P56 9-mer neoantigen peptide … (SPOP(F102C) missense)]", "measured_property": "exchange rate with Pos peptide", "test_value": "6.8%"}
{"binder": "CPMSRLRLA (here or on the partner: biotinylated heavy chain) [P46 9-mer neoantigen peptide … (TP53 (R213D) frameshift)]", "measured_property": "exchange rate with Pos peptide", "test_value": "10.3%"}
{"binder": "QLIAMDSAI (here or on the partner: biotinylated heavy chain) [P22 9-mer neoantigen peptide … (SLC45A3-ELK4 fusion)]", "measured_property": "exchange rate with Pos peptide", "test_value": "4.8%"}
{"binder": "YCMAAPMGL (here or on the partner: biotinylated heavy chain) [P76 9-mer neoantigen peptide … (AR-V3 splice variant)]", "measured_property": "exchange rate with Pos peptide", "test_value": "6%"}

Give exchange rate with Pos peptide for each of the items listed below.
1. IPVLTRWPL (here or on the partner: biotinylated heavy chain) [P19 9-mer neoantigen peptide … (TMEM222-LOC644961 fusion)]
2. FLFLLLPLS (here or on the partner: biotinylated heavy chain) [P87 9-mer neoantigen peptide … (AR-Intron splice variant)]
3. HVPKILSGK (here or on the partner: biotinylated heavy chain) [P58 9-mer neoantigen peptide … (AR (Q903H) missense)]
4. LMAQRLLLR (here or on the partner: biotinylated heavy chain) [P97 9-mer neoantigen peptide … (FOXRED2-TXN2 fusion)]

**A:**
1: 4.1%; 2: 2.4%; 3: 32.5%; 4: 39%

Here are 4 binders. What values of exchange rate with Pos peptide were reported for them?
1. YLRRQKRLK (here or on the partner: biotinylated heavy chain) [P60 9-mer neoantigen peptide … (FOXA1.p.F266L missense)]
2. IVWWCPMSR (here or on the partner: biotinylated heavy chain) [P98 9-mer neoantigen peptide … (TP53 (R213D) frameshift)]
3. RVGNCKHLK (here or on the partner: biotinylated heavy chain) [P82 9-mer neoantigen peptide … (AR-V7 splice variant)]
4. RAVRRMNTF (here or on the partner: biotinylated heavy chain) [P17 9-mer neoantigen peptide … (MSMB-NOCA4 fusion)]

**A:**
1: 36.6%; 2: 51.1%; 3: 58.1%; 4: 3.8%

Entry source: patent US20240139265A1
